Parameter: TGI. Scope: all listed entries.
system: NCI-H522 lung; assay: NCI tumour cell line growth inhibition, 48 h

compound	assayed.target	TGI
CN(C)CCCNC(=S)S	NCI-H522 lung	> 100 µM
CN1CCN(Cn2nc(COc3ccc(Cl)cc3)n(/N=C/c3ccc(-c4ccc(Cl)cc4Cl)o3)c2=S)CC1	NCI-H522 lung	10.2 µM
CCCCCC/C=C\CCCCCCCCCc1cc(O)cc(OC)c1O	NCI-H522 lung	1.22 µM
Cc1ccc(C2C(Cl)C(=O)N2n2cnc3ccccc3c2=O)cc1 (stereo not drawn)	NCI-H522 lung	> 100 µM
COc1cc2c(c(OC)c1)C(C)=NC(C)C2 (stereo not drawn)	NCI-H522 lung	> 100 µM
COc1ccc(OC)c(Nc2nc3ccccc3c3c2-c2ccc(OC)cc2C3=O)c1	NCI-H522 lung	> 100 µM
CC#C[C@@]1(O)CCCCC1O (stereo partly drawn)	NCI-H522 lung	> 100 µM
Clc1ccc(CN2COc3c(ccc4cccnc34)C2)cc1Cl	NCI-H522 lung	2.61 µM
O=c1c2ccccc2sc2nc(CCl)nn12	NCI-H522 lung	67.8 µM
CC(C)(C)c1cc(COc2cc(COc3ccc(-c4c5c(nc6c4CCc4ccc(-c7c8ccccc8nc8ccccc78)cc4-6)-c4cc(-c6c7ccccc7nc7ccccc67)ccc4CC5)cc3)cc(OCc3cc(C(C)(C)C)cc(C(C)(C)C)c3)c2)cc(C(C)(C)C)c1	NCI-H522 lung	> 100 µM
CC(C)(C)c1cc(C(C)(C)C)c2c(c1O)OC(=O)CS2	NCI-H522 lung	14.3 µM
CC(C)(C)OC(=O)CCC1NC(=O)[C@@H]2Cc3c([nH]c4ccccc34)C(C3CCCCC3)N2C1=O (stereo partly drawn)	NCI-H522 lung	> 100 µM
COc1ccc(/C=C/C(=O)Oc2ccc(/C=C3\CCCCC3=O)cc2)cc1	NCI-H522 lung	> 100 µM
Cc1cc(=O)[nH]c(NN2C(Cl)C(=O)C2c2ccc(O)cc2)n1 (stereo not drawn)	NCI-H522 lung	32.8 µM
CC1(SCC(N)C(=O)O)CC(=O)NC1=O (stereo not drawn)	NCI-H522 lung	> 100 µM
O=C1C=CC2(C=C1)CCC(=O)O2	NCI-H522 lung	5.4 µM
COC1OC(C)C(OC(=O)C(C)(C)C)C(OS(=O)(=O)c2ccc(C)cc2)C1OS(=O)(=O)c1ccc(C)cc1 (stereo not drawn)	NCI-H522 lung	> 100 µM
C=CCNC(=O)NNC(O)(C(=O)OCC)C(F)(F)F (stereo not drawn)	NCI-H522 lung	> 100 µM

----------
test system: HCC-2998 colon; assay: NCI tumour cell line growth inhibition, 48 h

smiles.string	assayed.target	GI50
O=C(Nc1ccc(-n2ccc3c(NC(=O)c4ccccc4)nccc32)cc1)c1cccc(C(F)(F)F)c1	HCC-2998 colon	1710 nM
CCCCCCC/C(=N\N=C(N)N)c1ccc(O)cc1	HCC-2998 colon	1620 nM
O=[N+]([O-])[O][Sn]([O][Sn]([O][N+](=O)[O-])([c]1ccccc1)[c]1ccccc1)([c]1ccccc1)[c]1ccccc1	HCC-2998 colon	> 100000 nM
COc1cc(C(=O)/C=C/c2cc(-c3cc(OC)c(OC)c(OC)c3)n[nH]2)cc(OC)c1OC	HCC-2998 colon	1830 nM
CO/N=C(\COc1ccc2c(=O)cc(-c3ccccc3)oc2c1)c1ccc(F)cc1	HCC-2998 colon	32300 nM
O=C(CCl)Nc1ccc2c(Nc3cc(O)ccc3Cl)ncnc2c1	HCC-2998 colon	4900 nM
Clc1ccc(CN2COc3c(ccc4cccnc34)C2)cc1Cl	HCC-2998 colon	2280 nM
O=c1c2c3c(sc2n2c(CCl)nnc2n1Cc1ccccc1)CCCC3	HCC-2998 colon	1740 nM

----------
system: HS 578T breast; test: NCI tumour cell line growth inhibition, 48 h
measurement.name: log10 of TGI (log10 of the value in µM)

molecule	numeric.readout
COc1cc(C(=O)/C=C/c2cc(-c3cc(OC)c(OC)c(OC)c3)n[nH]2)cc(OC)c1OC	1.73
CCCCCCC(C)c1ccc2c(c1)C(=O)c1nc3ccncc3c(=O)n1-2 (centres undefined)	1.41
C=C(CC[C@@H](C)[C@H]1CC[C@H]2[C@@H]3C[C@@H](O)[C@H]4C[C@@H](O)CC[C@]4(CO)[C@H]3CC[C@]12C)C(C)C	1.09
O=S(=O)(/N=C(\NO)Nc1ccc(Cl)cc1)c1cc2ccccc2o1	1.72
CCN(CC)CCCNc1ccc2ncn3c4ccc(O)cc4c(=O)c1c23	0.86
COc1cc2c3c(n(CCCN(C)C)c(=O)c2cc1OC)-c1cc2c(cc1C3=O)OCO2	0.77
O=C(c1c(Cl)cc(Cl)cc1Cl)N(Cc1cccnc1)C(=S)N(Cc1cccnc1)C(=O)c1c(Cl)cc(Cl)cc1Cl	1.77
Nc1nc(Cl)c(/C=N\O)c(NCC2(CO)CC(=O)C2)n1	1.75
COC(=O)c1ccc([C@H]2c3[nH]c4ccccc4c3C[C@H](C(=O)OC)N2C(=O)CCl)cc1	0.78
O=c1c2sc3ccccc3c2nnn1-c1ccc(F)c(Cl)c1	1.02
CCCCCCC/C(=N\N=C(N)N)c1ccc(O)cc1	1.39
C=C1C2CC[C@@](C)(O)C2[C@H]2OC(=O)C(=C)[C@@H]2C[C@H]1O (some centres undefined)	1.85
CCOC(=O)/C=C\[C@H]1OC(C)(C)O[C@H]1[C@H](O)[C@H]1COC(C)(C)O1	1.97
Cn1ccnc1C(=O)/C=C/c1ccc(C(=O)Nc2ccccc2F)cc1	1.19
CC(=O)CC1(O)C(=O)c2c(Br)sc(Br)c2C1=O	1.98
Cc1ccc2nc3ccccc3c(NCc3ccccc3)c2c1	1.19
C=C(C)C(=O)OC1C[C@H](COC(C)=O)C2CC=C(C)C2C2OC(=O)C(=C)[C@H]12 (some centres undefined)	1.15
Cc1cc2c(C(C)C)c(O)c(O)c(C=NCC3CCCN4CCCCC34)c2cc1-c1cc2c(C=NCC3CCCN4CCCCC34)c(O)c(O)c(C(C)C)c2cc1C (centres undefined)	1.74
COc1cc2c(cc1OCCCCOc1cc3nc(C)nc(Cl)c3cc1OC)N=C[C@@H]1CCCN1C2=O	0.75
O=C1CS/C(=N/S(=O)(=O)c2ccc(N3N=C4c5ccccc5CC4C3c3cccs3)cc2)N(c2ccccc2)C1 (centres undefined)	1.92
O=c1c2ccccc2sc2nc(CCl)nn12	1.58
C=C[C@@]1(C)CC2(C=C(CO)C(O)O2)Oc2c1c(=O)oc1cccc(C)c21 (some centres undefined)	1.63

----------
# TGI values compiled below
system: NCI-H522 lung; test: NCI tumour cell line growth inhibition, 48 h
measurement.name: TGI (µM)

molecule	unit.tag	readout.relation	numeric.readout
CCOC(=O)C(NC(=O)CC)(C(F)(F)F)P(=O)(OCC)OCC (configuration not stated)	µM	>	100
COC(=O)N1c2ccc3c(nc(Cc4ccccc4)n3[C@H]3CCC[C@H](C(=O)O)C3)c2CC[C@@H]1C	µM	>	100
Cc1ccc2c3c4c(ccc13)C(C)(C)OC4=C(C(C)C)C2=O	µM	>	100
CCOC1c2cc(OC)c(OC)cc2-c2ccc3ccccc3c2N1C (configuration not stated)	µM	=	18.3
Cc1c(CN)c(C)c(CN)c(C)c1CN	µM	>	100
Clc1ccc(Cl)c(N=Nc2cc3c4c(c2)CCCN4CCC3)c1	µM	>	10
C=C(C)C(=O)OC1C[C@H](COC(C)=O)C2CC=C(C)C2C2OC(=O)C(=C)[C@H]12 (some centres not stated)	µM	=	3.06
CCOC(OC1=CCCC1)C(C)[Se]c1ccccc1 (configuration not stated)	µM	=	35.9
N#Cc1c(-c2ccc(Cl)cc2)cc(-c2cc(O)ccc2O)nc1N	µM	=	2.72
CC(C)(C)c1ccc(-n2c3nc(=O)n(-c4ccccc4C(F)(F)F)c(=O)c-3cc3ccccc32)cc1	µM	=	45.4
O=C(O)c1cc2cc(OCc3ccccc3)ccc2[nH]1	µM	>	100
CCCCCCCCCC1CC(=O)Oc2cccc(O)c21 (configuration not stated)	µM	=	45.3
N#Cc1c(C#N)c(SSc2c(C#N)c(C#N)c(N)n2-c2ccc(F)cc2)n(-c2ccc(F)cc2)c1N	µM	=	4.11
OC(c1ccc(F)cc1)(c1ccc(F)cc1)C1CC1	µM	=	52.9
Cc1ccncc1N1CCN(c2ccnc(Cl)c2)C1=O	µM	>	100
Cn1c(=O)n2c(=O)n(C)c(=O)n2c1=O	µM	>	100
CCOC(=O)C(C)(C)Oc1ccc(Cl)cc1	µM	>	1000
O=C(N/N=C\c1cc(Cl)ccc1O)c1ccncc1	µM	=	22.4
NC(Cc1ccc(OCc2ccccc2)cn1)C(=O)OCc1ccccc1 (configuration not stated)	µM	>	100
Cc1ccc(NC(=O)CSc2nnc(Cc3ccccc3)o2)c(C)c1	µM	>	100
CC(O)C1(CNc2cc(Cl)nc(N)n2)CCCC1 (configuration not stated)	µM	>	100
COc1ccc(Nc2nc(C#N)c(N)s2)cc1	µM	>	100
Cn1ccnc1C(=O)/C=C/c1ccc(C(=O)Nc2ccccc2F)cc1	µM	=	8.76
O=c1ccc2ccc(O)c3c4c(=O)ccc5ccc(O)c(c1c23)c54	µM	=	3.08
CN(C)c1ccc(/C=C2\N=C(N/N=C/c3ccc(N(C)C)cc3)NC2=O)cc1	µM	>	100
COc1cc2c3c(n(CCCNCCCNCCCn4c5c(c6cc(OC)c(OC)cc6c4=O)C(=O)c4ccccc4-5)c(=O)c2cc1OC)-c1ccccc1C3=O	µM	=	38.7
CCN1CC2(COC)C(O)CC(OC)C34C5CC6(O)C(OC)C=C(C5C6OC(=O)c5ccc(OC)c(OC)c5)C(C(OC)C23)C14 (configuration not stated)	µM	>	7.5
COc1ccc(NC(=O)c2sc3nc(C)c(C(=O)/C=C/c4ccccc4)cc3c2N)cc1	µM	=	2.42
C/C1=C/C2OC(=O)C3(C)C2C(CC2(C)OC1=CC2=O)OC3(O)C(C)C (configuration not stated)	µM	=	35.7
C=C[C@@]1(C)CC2(C=C(CO)C(O)O2)Oc2c1c(=O)oc1cccc(C)c21 (some centres not stated)	µM	=	4.82
O=C(CC1(O)C(=O)N(Cc2ccccc2)c2ccc(Br)cc21)c1ccc(C(=O)NCC2CCC3(CC2)OOC2(CCCCC2)OO3)cc1 (configuration not stated)	µM	=	0.556
N#CCCN1C/C(=C/c2ccccc2)C(=O)/C(=C/c2ccccc2)C1	µM	=	3.56
Cc1cc(Br)ccc1NC1=CC(=O)C(=O)c2ccccc21	µM	>	100
COc1ccc2c(c1)CC[C@@H]1C2CC[C@]2(C)C(=O)N(CCN3CCCC3)C(=O)CC12 (some centres not stated)	µM	=	52.7
CCOC(=O)c1cnc2oc(-c3ccc(OC)cc3)nn2c1=O	µM	>	100
COc1cc(C(=O)/C=C/c2cc(-c3cc(OC)c(OC)c(OC)c3)n[nH]2)cc(OC)c1OC	µM	=	1.7
O=C1CCC(=O)N1CNc1cccc(NCN2C(=O)CCC2=O)c1	µM	>	100
C[C@H](NS(=O)(=O)c1ccc(NC(=O)c2ccccc2)cc1)C(=O)O	µM	>	100
CCOC(=O)C1N(S(=O)(=O)c2ccc(C)cc2)CCC12C(c1ccc(OC)c(OC)c1)=Nc1ccccc12 (configuration not stated)	µM	>	100
CCC(=O)Oc1cc(/C=C/C(=O)O[C@H]2C[C@H]3CN4CCc5c([nH]c6cc(OC)ccc56)[C@@H]4C[C@@H]3[C@@H](C(=O)OC)[C@@H]2OC)ccc1OC	µM	=	33.6
CCOC(=O)C(=O)Nc1cccc(Cl)c1C	µM	>	100
C[PH+](C)C.C[PH+](C)C.[Au]	µM	=	0.771
